# Tested on: human red blood cells
# assay.notes: Hemolytic assay
# Assay type: cell-based
# condition.parameters: 10% hemolytic activity, mean n = 2
# Experimental: Human whole blood was washed three times with three volumes of 0.9% NaCl and then resuspended in the same solution to a concentration of 0.5 × 10^8 cells/mL, as determined by the manual cell count in a Neubauer hemocytometer. The washed cells were then added to the 384-well compound-containing plates for a final volume of 50 μL. […] Hemolysis was determined by measuring the supernatant absorbance at […] (OD405). The absorbance was measured using a Tecan M1000 Pro monochromator plate reader. […]
outcome.measure: Hemolysis HC10

In [3]: df
Out[3]:
                                   compound  measured
0  O=C(NCCCNCCCCNCCCNC(=O)c1c[nH]c2ccccc12)c1c[nH]c2ccccc12 [Compound 12a]    >45 µM
1  COc1ccc2[nH]cc(C(=O)NCCCNCCCCCCNCCCNC(=O)c3c[nH]c4ccc(OC)cc34)c2c1 [Compound 14b]    >40 µM
2  O=C(NCCCNCCCCNCCCNC(=O)c1c[nH]c2c(F)cccc12)c1c[nH]c2c(F)cccc12 [Compound 16a]    >43 µM

Give the measured Hemolysis HC10 for O=C(NCCCNCCCCCCNCCCNC(=O)c1c[nH]c2ccc(Br)cc12)c1c[nH]c2ccc(Br)cc12 [Compound 13b]
>35 µM

Provide one value: measured Hemolysis HC10 of Cc1cccc2c(C(=O)NCCCNCCCCCCCCCCNCCCNC(=O)c3c[nH]c4c(C)cccc34)c[nH]c12 [Compound 18e]
>39 µM

Identify the reported Hemolysis HC10 for the following entry. COc1ccc2[nH]cc(C(=O)NCCCNCCCCCCCCCCCCNCCCNC(=O)c3c[nH]c4ccc(OC)cc34)c2c1.O=C(O)C(F)(F)F.O=C(O)C(F)(F)F [Compound 14f]
>36 µM

Answer with the recorded Hemolysis HC10 for the compound listed here: Cc1ccc2[nH]cc(C(=O)NCCCNCCCCCCCCCCCCNCCCNC(=O)c3c[nH]c4ccc(C)cc34)c2c1.O=C(O)C(F)(F)F.O=C(O)C(F)(F)F [Compound 15f]
>37 µM
